System: A549/ATCC NSCLC
Assay: NCI-60 one-dose screen, 48 h
Conditions: 10 µM unless noted
Experimental: Growth inhibition of the A549/ATCC human Non-Small Cell Lung tumor cell line is measured as a screen for anti-cancer activity. Cells are grown in 96 well plates and exposed to the test compound for 48 hours. Compounds are tested at a single concentration, which is 10^-5 M for most compounds. The reported endpoint is percent growth (GI% or GIPRCNT), where numbers from 0 - 100% represent growth inhibition, and numbers from -100% - 0 represent cell death. […]
This is part of a sample that, as a whole, favours compounds with a hit. Of some 83,000 tested, about 20% had one in any assay. The source made the active and inactive calls. The calls were made as follows: active = growth percent below 10; inactive = the rest.
One label from this list, please: active, inactive

Look over these answered cases.
Smiles Input | Category
C=C(C)[C@@H]1CC[C@]2(C)[C@H](C(=O)C=C3[C@@H]4C[C@](C)(C(=O)N5CCN(C)CC5)CC[C@]4(C)CC[C@]32C)[C@@]1(C)CCC#N | active
COc1cc2c(O)n(CCCN3CCOCC3)c3c4cnc5cccc(c(=O)c3c2cc1OC)c54 | inactive
O=C(Nc1cc(F)cc2cccnc12)c1cnc(N2CCNCC2)cn1 | inactive
CC(=O)OC[C@]12CC[C@@H]([C@@H](C)C(N)=O)[C@@H]1[C@H]1CC[C@@H]3[C@@]4(C)CC[C@H](OC(C)=O)C(C)(C)[C@@H]4CC[C@@]3(C)[C@]1(C)CC2 | active
C=C(C)[C@@H]1CC[C@]2(COC(=O)c3ccccc3C(=O)O)CC[C@]3(C)[C@H](CC[C@@H]4[C@@]5(C)CC[C@H](OC(=O)c6ccccc6C(=O)O)C(C)(C)[C@@H]5CC[C@]43C)[C@@H]12 | inactive
C=C(C)[C@@H]1CC[C@]2(C(=O)O)CC[C@]3(C)[C@H](CC[C@@H]4[C@@]5(C)C/C(=C/c6ccco6)C(=O)C(C)(C)[C@@H]5CC[C@]43C)[C@@H]12 | active

[ask] Any idea what this test logged for `CCN=C1C=CC(=C(c2ccc(N(CC)CC)cc2)c2ccc(N(CC)CC)cc2)c2ccccc21` ?
[reply] active

###

Tested on: SR leukemia
Test: NCI-60 one-dose screen, 48 h
Settings: 10 µM unless noted
Compounds without any hit were thinned out: in the full panel of roughly 83,000, 20% have a hit. Active and inactive are the calls of the source. Rule for the calls: active = growth percent below 10; inactive = the rest.
One label from this list, please: active, inactive

Look over these answered cases.
Compound | Category
Cc1ccc(NC(=O)N[C@@H](Cc2cc(F)cc(F)c2)C(=O)N[C@@H]2C(=O)N3CCC[C@H]3C(=O)N3CCOC[C@H]3C(=O)N[C@@H](C)C(=O)N3C[C@H](C)C[C@H]3C(=O)O[C@H]2C)cc1 | inactive
CCOC(=O)c1c[nH]n2c(=S)ncnc12 | inactive
COc1ccc2nc3cc(Cl)ccc3c(Nc3ccc(O)cc3)c2c1 | active

[ask] Any idea what this test logged for `O=C1NC(=O)C(Cc2ccccc2)(Cc2ccccc2)N1` ?
[reply] inactive

[ask] Any idea what this test logged for `C=C(C)[C@@H]1CC[C@]2(C(=O)O)CC[C@]3(C)[C@H](CC[C@@H]4[C@@]5(C)C/C(=C/c6ccco6)C(=O)C(C)(C)[C@@H]5CC[C@]43C)[C@@H]12` ?
[reply] inactive

###

System: U251 CNS
Assay: NCI-60 one-dose screen, 48 h
Conditions: 10 µM unless noted
The panel holds about 83,000 compounds, 20% with a hit somewhere; the sample as a whole holds those more often. Calls of active or inactive are those of the source. The calls were made as follows: active = growth percent below 10; inactive = the rest.
One label from this list, please: active, inactive

Look over these answered cases.
Compound | Category
O=C1COCCN1c1ccc(NCc2cn(Cc3ccc(F)cc3)c3ccccc23)cc1 | inactive
CC1(C)CC[C@]2(C(=O)O)CC[C@]3(C)[C@H](CC[C@@H]4[C@@]5(C)CCC(=O)C(C)(C)[C@@H]5CC[C@]43C)[C@H]2[C@H]1OC(=O)C(F)(F)F | active

[ask] Any idea what this test logged for `Cc1c(Cn2cc(COc3ccc(Br)cc3)nn2)c(C)c(Cn2cc(COc3ccc(Br)cc3)nn2)c(C)c1Cn1cc(COc2ccc(Br)cc2)nn1` ?
[reply] inactive

[ask] Any idea what this test logged for CCCn1ccnc1C(O)c1ccc(OCc2ccccc2)c(OC)c1 (stereo not drawn) ?
[reply] inactive
